- System: Diabrotica balteata (Corn Root Worm)
- Measurement notes: Diabrotica balteata L2 larvae test on artificial diet
- Format: in vivo
- Conditions: application rate 12 ppm
- Method: Diabrotica balteata (Corn Root Worm): A 24-well microtiter plate (MTP) with artificial diet was treated with test solutions at an application rate of 200 ppm (concentration in well […]) by pipetting. After drying, the MTP's were infested with L2 larvae (6-10 per well). After an incubation period of 5 days, samples were checked for larval mortality and growth regulation. […]
Measured property: Control, Diabrotica balteata (Corn root worm) (%)
Please respond with the number in % and leave the unit unwritten.

These solved cases illustrate the format of a correct answer.
- Compound: "Cc1cc(N2CCC(c3cc(Cl)cc(Cl)c3)(C(F)(F)F)C2)ccc1C(=O)NC1CSC1 (stereo not shown) [Compound A4]"
  Reported value: 100
- Compound: "Cc1cc(N2CCC(c3cc(Cl)cc(Cl)c3)(C(F)(F)F)C2)ccc1C(=O)NC1CS(=O)(=O)C1 (stereo not shown) [Compound A5]"
  Reported value: 100
- Compound: "Cc1cc(N2CCC(c3cc(Cl)cc(Cl)c3)(C(F)(F)F)C2)ccc1C(=O)NCc1ccccn1 (stereo not shown) [Compound 1-4 of WO08128711, reference compound]"
  Reported value: 0

We next turn to a different compound, shown below.
Sample Cc1cc(N2CCC(c3cc(Cl)cc(Cl)c3)(C(F)(F)F)C2)ccc1C(=O)NC1C[S+]([O-])C1 (stereo not shown) [Compound A1] ; Control, Diabrotica balteata (Corn root worm) observed: 80
